For each record, write down the corresponding inhibition at 1 µM.
- SUBJECT_OF_TEST: PKA (Bos taurus)
- Construct: purchased Promega
- RUN_DESCRIPTION: In vitro PKA kinase activity assay (kemptide / SPA beads);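 note: Cell-free assay of purified PKA catalytic subunit phosphorylating the 7-mer kemptide substrate, run in MOPS buffer with magnesium acetate and BSA, with blank wells lacking enzyme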
- Type: biochemical
- ASSAY_CONDITIONS: 1 μM compound concentration, Assay 1; read-out: PKA-kinase Assay 1, % inhibition of kinase activity
*1 amine or outer side, *2 acyl side, *3 side chain or, on linkers, in order; H or OH if unused. Where a SMILES comes first, the peptide text is derived from it. Side-chain parts run from the residue outwards. [ ]: non-standard residue; d: D form. The star is where a group is joined. Isoquinoline5sulfonyl = O=S(=O)(c1cccc2cnccc12)*; Ethylenediamine = C(CN[*:2])N[*:1]; hLeu = CC(C)CC[C@H](N)C(=O)O; Nle = CCCC[C@H](N)C(=O)O; Orn = NCCC[C@H](N)C(=O)O; Dab = NCC[C@H](N)C(=O)O
Give bare numbers, in %.

Below are worked cases with known answers.
>>> result("CC(C)CC[C@H](NC(=O)[C@H](CCN)NC(=O)[C@H](CCC(=O)NCC(=O)NCCNS(=O)(=O)c1cccc2cnccc12)NC(=O)[C@H](CCCN)NC(=O)[C@H](CCCNC(=N)N)NC(=O)[C@@H]1CCCN1C(=O)[C@@H](N)CCCNC(=N)N)C(N)=O [60020-42] (H-RPR[Orn]E([Gly-Ethylenediamine-Isoquinoline5sulfonyl])[Dab][hLeu]-NH2)")
99
>>> result("CCCC[C@H](NC(=O)[C@H](CCCNC(=N)N)NC(=O)[C@@H]1CCCN1C(=O)[C@@H](N)CCCNC(=N)N)C(=O)N[C@@H](CCC(=O)NCC(=O)NCCNS(=O)(=O)c1cccc2cnccc12)C(=O)N[C@@H](CCCN)C(=O)N[C@@H](Cc1ccccc1)C(N)=O [60020-59] (H-RPR[Nle]E([Gly-Ethylenediamine-Isoquinoline5sulfonyl])[Orn]F-NH2; N-terminus assumed)")
92
>>> result("CCCC[C@H](NC(=O)[C@H](CCCNC(=N)N)NC(=O)[C@@H]1CCCN1C(=O)[C@@H](N)CCCNC(=N)N)C(=O)N[C@@H](CCC(=O)NCC(=O)NCCNS(=O)(=O)c1cccc2cnccc12)C(=O)N[C@@H](CCN)C(=O)N[C@@H](Cc1ccccc1)C(N)=O [60020-57] (H-RPR[Nle]E([Gly-Ethylenediamine-Isoquinoline5sulfonyl])[Dab]F-NH2)")
95

// below: inhibition at 1 µM requested for another compound
Q: Any idea what inhibition at 1 µM was measured for CCCC[C@H](NC(=O)[C@H](CCCNC(=N)N)NC(=O)[C@@H]1CCCN1C(=O)[C@@H](N)CCCNC(=N)N)C(=O)N[C@@H](CCC(=O)NCC(=O)NCCNS(=O)(=O)c1cccc2cnccc12)C(=O)N[C@@H](CCN)C(=O)N[C@@H](CCC(C)C)C(N)=O [60020-58] (H-RPR[Nle]E([Gly-Ethylenediamine-Isoquinoline5sulfonyl])[Dab][hLeu]-NH2) ?
Result: 98

====

- SUBJECT_OF_TEST: PKB (Homo sapiens)
- Construct: His; HA; made in house
- RUN_DESCRIPTION: PKB in vitro kinase activity assay (soluble His-HA-PKB / SPA bead screening)
- Assay type: biochemical
- ASSAY_CONDITIONS: 1 μM compound concentration, Assay 1
Where no end group is shown, it is not given here. Side-chain parts run from the residue outwards. [ ]: non-standard residue; d: D form. The star is where a group is joined. X1 = 5‑aminoethylsulfonamide isoquinoline, O=S(=O)(NCCN*)c1cccc2cnccc12; hLeu = CC(C)CC[C@H](N)C(=O)O; Orn = NCCC[C@H](N)C(=O)O; Dab = NCC[C@H](N)C(=O)O; Nva = CCC[C@H](N)C(=O)O; Abu = CC[C@H](N)C(=O)O; Dap = NC[C@H](N)C(=O)O; βAla = NCCC(=O)O
ENDPOINT: PKB-kinase (spa) Assay 1, % inhibition of kinase activity (%)
Give bare numbers, in %.

Below are worked cases with known answers.
>>> result("60020-77: Arg-Pro-Arg-Orn-Glu(bAla-5-aminoethylsulfonamide isoquinoline)-Ala-Phe (RPR[Orn]E([βAla-X1])AF)")
13
>>> result("60020-48: Arg-Pro-Arg-Orn-Glu(Gly-5-aminoethylsulfonamide isoquinoline)-Nva-Hol (RPR[Orn]E([Gly-X1])[Nva][hLeu])")
10
>>> result("60020-12: Arg-Pro-Arg-Orn-Glu(5-aminoethylsulfonamide isoquinoline)-Orn-Hol (RPR[Orn]E(X1)[Orn][hLeu])")
23

// input: 7 substances below; output: PKB-kinase (spa) Assay 1, % inhibition of kinase activity for each
1. 60020-5: Arg-Pro-Arg-Dap-Glu(5-aminoethylsulfonamide isoquinoline)-Ala-Phe (RPR[Dap]E(X1)AF)
2. 60020-14: Arg-Pro-Arg-Orn-Glu(5-aminoethylsulfonamide isoquinoline)-Ala-Hol (RPR[Orn]E(X1)A[hLeu])
3. 60020-1: Arg-Pro-Arg-Dap-Glu(5-aminoethylsulfonamide isoquinoline)-Dab-Phe (RPR[Dap]E(X1)[Dab]F)
4. 60020-13: Arg-Pro-Arg-Orn-Glu(5-aminoethylsulfonamide isoquinoline)-Ala-Phe (RPR[Orn]E(X1)AF)
5. 60020-56: Arg-Pro-Arg-Abu-Glu(Gly-5-aminoethylsulfonamide isoquinoline)-Nva-Hol (RPR[Abu]E([Gly-X1])[Nva][hLeu])
6. 60020-4: Arg-Pro-Arg-Dap-Glu(5-aminoethylsulfonamide isoquinoline)-Orn-Hol (RPR[Dap]E(X1)[Orn][hLeu])
7. 60020-87: Arg-Pro-Arg-Abu-Glu(bAla-5-aminoethylsulfonamide isoquinoline)-Nva-Phe (RPR[Abu]E([βAla-X1])[Nva]F)

Result:
46
26
67
36
20
34
−50

// input: 2 substances below; output: PKB-kinase (spa) Assay 1, % inhibition of kinase activity for each
1. 60020-34: Arg-Pro-Arg-Dap-Glu(Gly-5-aminoethylsulfonamide isoquinoline)-Dab-Hol (RPR[Dap]E([Gly-X1])[Dab][hLeu])
2. 60020-39: Arg-Pro-Arg-Dap-Glu(Gly-5-aminoethylsulfonamide isoquinoline)-Nva-Phe (RPR[Dap]E([Gly-X1])[Nva]F)

Result:
64
17

====

- SUBJECT_OF_TEST: PKB (Homo sapiens)
- Construct: His; HA; made in house
- RUN_DESCRIPTION: PKB in vitro kinase activity assay (soluble His-HA-PKB / SPA bead screening)
- Type: biochemical
- ASSAY_CONDITIONS: 1 μM compound concentration, Assay 2
Where no end group is shown, it is not given here. Side-chain parts run from the residue outwards. [ ]: non-standard residue; d: D form. The star is where a group is joined. X1 = 5‑aminoethylsulfonamide isoquinoline, O=S(=O)(NCCN*)c1cccc2cnccc12; hLeu = CC(C)CC[C@H](N)C(=O)O; Nle = CCCC[C@H](N)C(=O)O; Orn = NCCC[C@H](N)C(=O)O; Dab = NCC[C@H](N)C(=O)O; Nva = CCC[C@H](N)C(=O)O; Abu = CC[C@H](N)C(=O)O; Dap = NC[C@H](N)C(=O)O; βAla = NCCC(=O)O
For each record, write down the corresponding PKB-kinase (spa) Assay 2, % inhibition of kinase activity.
Answers are plain numbers, in %.

>>> result("60020-96: Arg-Pro-Arg-Nle-Glu(bAla-5-aminoethylsulfonamide isoquinoline)-Nva-Hol (RPR[Nle]E([βAla-X1])[Nva][hLeu])")
54

// input: 5 substances below; output: PKB-kinase (spa) Assay 2, % inhibition of kinase activity for each
1. 60020-74: Arg-Pro-Arg-Orn-Glu(bAla-5-aminoethylsulfonamide isoquinoline)-Dab-Hol (RPR[Orn]E([βAla-X1])[Dab][hLeu])
2. 60020-51: Arg-Pro-Arg-Abu-Glu(Gly-5-aminoethylsulfonamide isoquinoline)-Orn-Phe (RPR[Abu]E([Gly-X1])[Orn]F)
3. 60020-49: Arg-Pro-Arg-Abu-Glu(Gly-5-aminoethylsulfonamide isoquinoline)-Dab-Phe (RPR[Abu]E([Gly-X1])[Dab]F)
4. 60020-6: Arg-Pro-Arg-Dap-Glu(5-aminoethylsulfonamide isoquinoline)-Ala-Hol (RPR[Dap]E(X1)A[hLeu])
5. 60020-60: Arg-Pro-Arg-Nle-Glu(Gly-5-aminoethylsulfonamide isoquinoline)-Orn-Hol (RPR[Nle]E([Gly-X1])[Orn][hLeu])

Result:
1: 41; 2: 37; 3: 66; 4: 14; 5: 70

====

For each record, write down the corresponding PKB-kinase (spa) Assay 1, % inhibition of kinase activity.
- SUBJECT_OF_TEST: PKB (Homo sapiens, UniProt P31749)
- Construct: His; HA; made in house
- Sequence (P31749 whole entry, species assumed): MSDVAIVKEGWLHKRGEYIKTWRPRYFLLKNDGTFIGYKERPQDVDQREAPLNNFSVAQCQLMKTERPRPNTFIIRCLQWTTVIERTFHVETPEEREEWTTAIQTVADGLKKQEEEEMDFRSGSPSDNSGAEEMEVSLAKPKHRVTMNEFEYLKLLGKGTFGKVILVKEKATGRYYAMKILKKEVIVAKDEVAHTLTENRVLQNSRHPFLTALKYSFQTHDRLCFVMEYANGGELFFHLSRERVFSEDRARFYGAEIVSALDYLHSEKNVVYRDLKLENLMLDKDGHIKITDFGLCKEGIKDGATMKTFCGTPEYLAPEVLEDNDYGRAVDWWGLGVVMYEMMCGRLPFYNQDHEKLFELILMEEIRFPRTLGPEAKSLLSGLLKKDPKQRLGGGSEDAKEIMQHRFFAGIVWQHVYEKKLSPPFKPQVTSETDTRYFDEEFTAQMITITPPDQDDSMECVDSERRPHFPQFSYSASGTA
- RUN_DESCRIPTION: PKB in vitro kinase activity assay (soluble His-HA-PKB / SPA bead screening)
- Assay type: biochemical
- ASSAY_CONDITIONS: 1 μM compound concentration, Assay 1
Where no end group is shown, it is not given here. Side-chain parts run from the residue outwards. [ ]: non-standard residue; d: D form. The star is where a group is joined. X1 = 5‑aminoethylsulfonamide isoquinoline, O=S(=O)(NCCN*)c1cccc2cnccc12; hLeu = CC(C)CC[C@H](N)C(=O)O; Nle = CCCC[C@H](N)C(=O)O; Orn = NCCC[C@H](N)C(=O)O; Dab = NCC[C@H](N)C(=O)O; Nva = CCC[C@H](N)C(=O)O; Abu = CC[C@H](N)C(=O)O; βAla = NCCC(=O)O
Remember to quote the unit after the number.

>>> result("60020-96: Arg-Pro-Arg-Nle-Glu(bAla-5-aminoethylsulfonamide isoquinoline)-Nva-Hol (RPR[Nle]E([βAla-X1])[Nva][hLeu])")
"0%"
>>> result("60020-84: Arg-Pro-Arg-Abu-Glu(bAla-5-aminoethylsulfonamide isoquinoline)-Orn-Hol (RPR[Abu]E([βAla-X1])[Orn][hLeu])")
"10%"
>>> result("60020-46: Arg-Pro-Arg-Orn-Glu(Gly-5-aminoethylsulfonamide isoquinoline)-Ala-Hol (RPR[Orn]E([Gly-X1])A[hLeu])")
"37%"
>>> result("60020-75: Arg-Pro-Arg-Orn-Glu(bAla-5-aminoethylsulfonamide isoquinoline)-Orn-Phe (RPR[Orn]E([βAla-X1])[Orn]F)")
"23%"
>>> result("60020-26: Arg-Pro-Arg-Nle-Glu(5-aminoethylsulfonamide isoquinoline)-Dab-Hol (RPR[Nle]E(X1)[Dab][hLeu])")
"17%"

// below: PKB-kinase (spa) Assay 1, % inhibition of kinase activity requested for another substance
Q: Any idea what PKB-kinase (spa) Assay 1, % inhibition of kinase activity was measured for 60020-64: Arg-Pro-Arg-Nle-Glu(Gly-5-aminoethylsulfonamide isoquinoline)-Nva-Hol (RPR[Nle]E([Gly-X1])[Nva][hLeu]) ?
Result: 25%
